Test system: lactate dehydrogenase (LDH)
Measurement Description: ELISA analysis of phage on LDH (irrelevant, non-specific target)
Type: binding
Condition: peptide binding to LDH polypeptide (non-specific binding); phage ELISA units read at 405 nm
Label satisfied when LDH (OD) is at or above 1 OD; anything below gets not satisfied.

[[record]]
substance = "VSGY#SLWWCGPGWGPRSGR (VSGYSLWWCGPGWGPRSGR; DGI-2-20F-PP-H11; listed as Escherichia coli)"
class_label = "not satisfied"

[[record]]
substance = "DRSRAPLCADKSGRWQRYRR (DGI-2-20F-PP-C10; listed as Escherichia coli)"
class_label = "not satisfied"

[[record]]
substance = "LSVFRPGQFPHVGARGVSRT (DGI-2-20R-4-G32; listed as Escherichia coli)"
class_label = "satisfied"

[[record]]
substance = "CGGWGAMWEAWVQGLNGAGC (DGI-2-20R-3-D4; listed as Escherichia coli)"
class_label = "satisfied"

[[record]]
substance = "RVSYEMLGRRRRSMHGSSMR (DGI-2-20F-PP-A4; listed as Escherichia coli)"
class_label = "satisfied"


Given LGPAHPHGRVCRVSSS#S (LGPAHPHGRVCRVSSSS; DGI-2-20F-PP-B9; listed as Escherichia coli) , state whether its LDH (OD) is at least 1 OD.
not satisfied

Dear colleague, could you confirm whether RERWGTAWNLWTEGVVDVRP (DGI-2-20F-3-B5; listed as Escherichia coli) has LDH (OD) at or above 1 OD?
not satisfied

Threshold query (LDH (OD) >= 1 OD) on SRGMAEAQFSAWPVLAVFPL (DGI-2-20F-PP-H8; listed as Escherichia coli)
not satisfied

Exam item: decide whether the reported LDH (OD) for FSSTGILLRSGRATAVGHVT (DGI-2-20F-3-A6; listed as Escherichia coli) is at least 1 OD.
satisfied

Dear colleague, could you confirm whether QMIFSKGNWLAHPEGGVALGLSRESQLFRSCREFGYCMGPM [DGI-2-40F-3-C6] has LDH (OD) at or above 1 OD?
not satisfied
